# tgt: Recombinant protein Claudin 18.2
# Sequence (chain, as listed by the source limits assumed, form in doubt): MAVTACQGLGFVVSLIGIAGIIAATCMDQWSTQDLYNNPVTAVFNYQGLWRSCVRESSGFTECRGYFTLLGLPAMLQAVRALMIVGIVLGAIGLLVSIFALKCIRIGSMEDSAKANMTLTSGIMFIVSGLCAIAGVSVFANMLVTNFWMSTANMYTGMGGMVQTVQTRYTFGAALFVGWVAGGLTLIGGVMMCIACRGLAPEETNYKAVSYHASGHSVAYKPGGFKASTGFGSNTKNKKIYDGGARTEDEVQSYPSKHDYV
# test.description: ELISA-based assay on Claudin 18.2, y axis RLU; Kd table under the graph, no unit in the table, unit from the x axis log[antibody] nM
observation.type: pKd
# log scale: pKd equals minus log10 of the concentration in mol/L

IN: # pKd lookup, item humanized anti-Claudin 18.2 antibody h5C9oan (antibody, human IgG1, kappa, V domains shown) VH: EVQLVESGGGLVQPGGSLRLSCAVSGYTFSMNWVRQAPGKGLEWVAWINMYTGEPTYADDFKGRFTISRDDSKNTLYLQMNSLRAEDTAVYYCARSSRGNGFDYWGQGTLVTVSS VL: DIQMTQSPSSLSASVGDRVTITCKSSQSLLNSGNQKSYLTWYQQKPGKAPKLLIYWASTLESGVPSRFSGSGSGTDYTLTISSLQPEDFATYYCQNAYFFPFTFGQGTKVEIKR
OUT: 9.92

IN: Name the recorded pKd for h5C9o Fc mutation (antibody, V domains shown) VH: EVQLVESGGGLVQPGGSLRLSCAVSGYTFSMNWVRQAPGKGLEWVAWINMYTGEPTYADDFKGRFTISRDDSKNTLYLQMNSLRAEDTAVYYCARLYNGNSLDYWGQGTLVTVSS VL: DIQMTQSPSSLSASVGDRVTITCKSSQSLLNSGNQKSYLTWYQQKPGKAPKLLIYWASTLESGVPSRFSGSGSGTDYTLTISSLQPEDFATYYCQNAYSFPFTFGQGTKVEIKR .
OUT: 9.79

IN: Need pKd, item Anti-CLDN 18.2-5C9ob (humanized antibody h5C9ob) (antibody, human IgG1, V domains shown) VH: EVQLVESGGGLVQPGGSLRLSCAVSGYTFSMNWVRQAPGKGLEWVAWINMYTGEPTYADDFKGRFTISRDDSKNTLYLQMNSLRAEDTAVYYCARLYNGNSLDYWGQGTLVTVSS VL: DIQMTQSPSSLSASVGDRVTITCKSSQSLLNSGNQKSYLTWYQQKPGKAPKLLIYWASTLESGVPSRFSGSGSGTDYTLTISSLQPEDFATYYCQNAYFFPFTFGQGTKVEIK
OUT: 9.89
